Source of measurements: patent US9732063B2

test system: PBMCs; test: IL-2 and IFN gamma release in CD3/CD28 stimulated PBMC cells; type: cell-based; conditions: Homo sapiens, read-out: IC50 Values for Inhibition of Cytokine Release PBMCs IL-2
MEASURED_PROPERTY: IC50 (nM)
Give the quantity in nM, number only.

The following compounds have reported results that may help.
[
  {
    "COMPOUND": "COc1cc(Nc2nccc(Oc3ccc(NC(=O)Nc4cc(C(C)(C)C)nn4-c4ccc(C)cc4)c4ccccc34)n2)cc(OCCN2CCOCC2)c1 [Example 45]",
    "REPORTED": 73.8
  },
  {
    "COMPOUND": "COc1cc(Nc2nccc(Oc3ccc(NC(=O)Nc4cc(C(C)(C)C)nn4-c4ccc(C)cc4)c4ccccc34)n2)cc(SCCCN2CCOCC2)c1 [Example 42]",
    "REPORTED": 58.5
  },
  {
    "COMPOUND": "COc1cc(Nc2nccc(Oc3ccc(NC(=O)Nc4cc(C(C)(C)C)nn4-c4ccc(C)cc4)c4ccccc34)n2)cc(SCCO)c1 [Example 55]",
    "REPORTED": 36.8
  },
  {
    "COMPOUND": "COc1cc(Nc2nccc(Oc3ccc(NC(=O)Nc4cc(C(C)(C)C)nn4-c4ccc(C)cc4)c(Cl)c3Cl)n2)cc(OCCCN2CCOCC2)c1 [Example 65]",
    "REPORTED": 37
  }
]

Look up IC50 for this compound: COCCOCCOCCOc1cc(Nc2cc(Oc3ccc(NC(=O)Nc4cc(C(C)(C)C)nn4-c4ccc(C)cc4)c4ccccc34)ccn2)cc(OC)c1 [Example 56]
152

Look up IC50 for this compound: COCCOCCOCCOc1cc(Nc2nccc(Oc3ccc(NC(=O)Nc4cc(C(C)(C)C)nn4-c4ccc(N(C)C)cc4)c4ccccc34)n2)cc(OC)c1 [Example 63]
76.2
